From: the supplement of paper PMC9112550

# Tested on: Escherichia coli TOP10
# assayMethodText: shrunken log2 fold change of peptide-encoding DNA abundance (4.5 h post-induction vs induction); higher = less antimicrobial activity (less host growth inhibition)
# setupConditions: time post-induction: 4.5 h; library: site-saturation at positions 5, 18, 19, 20
The threshold is inclusive: shrunken log2 fold change of exactly -0.06 counts as YES; values below receive NO.

[[record]]
sequencechain = "RRIRERPPRLPRPRPRPACSPRP"
grouplabel = "YES"

[[record]]
sequencechain = "RRIRYRPPRLPRPRPRPYNFPRP"
grouplabel = "NO"

[[record]]
sequencechain = "RRIRPRPPRLPRPRPRPDHQPRP"
grouplabel = "NO"

[[record]]
sequencechain = "RRIRFRPPRLPRPRPRPRYQPRP"
grouplabel = "NO"

[[record]]
sequencechain = "RRIRYRPPRLPRPRPRPGRNPRP"
grouplabel = "YES"


Could you verify whether the entry RRIRMRPPRLPRPRPRPKWIPRP shows shrunken log2 fold change of no less than -0.06?
NO

For this sequence, is measured shrunken log2 fold change -0.06 or higher? RRIRKRPPRLPRPRPRPAKCPRP
YES

Dear colleague, could you confirm whether RRIRQRPPRLPRPRPRPPCSPRP has shrunken log2 fold change at or above -0.06?
YES

Please tell me: is the sequence RRIRGRPPRLPRPRPRPTKKPRP at or over -0.06 in terms of shrunken log2 fold change?
YES

Quick check, shrunken log2 fold change >= -0.06? RRIRARPPRLPRPRPRPMPHPRP
YES

Is reported shrunken log2 fold change greater than or equal to -0.06 here: RRIRIRPPRLPRPRPRPCSLPRP
NO

Would you say RRIRMRPPRLPRPRPRPMTLPRP shows shrunken log2 fold change at minimum -0.06?
YES

shrunken log2 fold change >= -0.06 for RRIRNRPPRLPRPRPRPNPSPRP ?
YES

Decide: is the reported value of shrunken log2 fold change for RRIRTRPPRLPRPRPRPVTHPRP equal to or greater than -0.06?
NO

Decide: is the reported value of shrunken log2 fold change for RRIRCRPPRLPRPRPRPIWVPRP equal to or greater than -0.06?
YES

Is reported shrunken log2 fold change greater than or equal to -0.06 here: RRIRLRPPRLPRPRPRPEFIPRP
YES

Identify whether the reported shrunken log2 fold change of the following sequence is -0.06 or greater: RRIRPRPPRLPRPRPRPGVHPRP
NO

---

# Test system: Escherichia coli TOP10
# assayMethodText: shrunken log2 fold change of peptide-encoding DNA abundance (4.5 h post-induction vs induction); higher = less antimicrobial activity (less host growth inhibition)
# setupConditions: time post-induction: 4.5 h; library: site-saturation at positions 5, 18, 19, 20
quantityMeasured: shrunken log2 fold change
# print the numeric value only

[[record]]
sequencechain = "RRIRERPPRLPRPRPRPNKHPRP"
quantitymeasured = "shrunken log2 fold change"
reported = -0.575

[[record]]
sequencechain = "RRIRQRPPRLPRPRPRPYIMPRP"
quantitymeasured = "shrunken log2 fold change"
reported = -1.64

[[record]]
sequencechain = "RRIRVRPPRLPRPRPRPQSVPRP"
quantitymeasured = "shrunken log2 fold change"
reported = -0.0666


Entry under review: RRIRDRPPRLPRPRPRPANMPRP . Reported shrunken log2 fold change?
-0.229

What value of measured shrunken log2 fold change is listed for RRIRLRPPRLPRPRPRPYNWPRP ?
-0.0937

Could you tell me which shrunken log2 fold change is on file for RRIRIRPPRLPRPRPRPINFPRP ?
-0.346

---

Examples of sequences with documented shrunken log2 fold change follow.
# Tested on: Escherichia coli TOP10
# assayMethodText: shrunken log2 fold change of peptide-encoding DNA abundance (4.5 h post-induction vs induction); higher = less antimicrobial activity (less host growth inhibition)
# setupConditions: time post-induction: 4.5 h; library: site-saturation at positions 5, 18, 19, 20
Would you mind answering with just the numeric figure?

# example entries with known answers
[[record]]
sequencechain = "RRIRCRPPRLPRPRPRPFCLPRP"
quantitymeasured = "shrunken log2 fold change"
reported = -0.327

[[record]]
sequencechain = "RRIRYRPPRLPRPRPRPECPPRP"
quantitymeasured = "shrunken log2 fold change"
reported = -0.00973

[[record]]
sequencechain = "RRIRRRPPRLPRPRPRPIHLPRP"
quantitymeasured = "shrunken log2 fold change"
reported = -0.0465

[[record]]
sequencechain = "RRIRERPPRLPRPRPRPSPDPRP"
quantitymeasured = "shrunken log2 fold change"
reported = -0.185

[[record]]
sequencechain = "RRIRFRPPRLPRPRPRPWSAPRP"
quantitymeasured = "shrunken log2 fold change"
reported = -0.429


I would be grateful if you could share the reported shrunken log2 fold change for RRIRMRPPRLPRPRPRPYMHPRP .
-0.0641

Reported shrunken log2 fold change, sequence RRIRHRPPRLPRPRPRPMWSPRP : ____
-0.209

// shrunken log2 fold change lookup, key: RRIRCRPPRLPRPRPRPEACPRP
0.0368

---

# System: Escherichia coli TOP10
# assayMethodText: shrunken log2 fold change of peptide-encoding DNA abundance (4.5 h post-induction vs induction); higher = less antimicrobial activity (less host growth inhibition)
# setupConditions: time post-induction: 4.5 h; library: site-saturation at positions 5, 18, 19, 20
# maps each entry to its shrunken log2 fold change

[[record]]
sequencechain = "RRIRLRPPRLPRPRPRPYYNPRP"
reported = -1.18

[[record]]
sequencechain = "RRIRARPPRLPRPRPRPERNPRP"
reported = 0.848

[[record]]
sequencechain = "RRIRPRPPRLPRPRPRPIDSPRP"
reported = -0.018

[[record]]
sequencechain = "RRIRWRPPRLPRPRPRPCASPRP"
reported = -0.0152

[[record]]
sequencechain = "RRIRMRPPRLPRPRPRPSTWPRP"
reported = 0.081


I would be grateful if you could share the reported shrunken log2 fold change for RRIRLRPPRLPRPRPRPISKPRP .
-0.125

Any idea what its shrunken log2 fold change is? The sequence is RRIRARPPRLPRPRPRPHMFPRP
0.0892

Dear colleague, I am looking for the recorded shrunken log2 fold change of the following sequence: RRIRQRPPRLPRPRPRPHTGPRP
-0.18

Dear colleague, I am looking for the recorded shrunken log2 fold change of the following sequence: RRIRQRPPRLPRPRPRPTLVPRP
0.186

shrunken log2 fold change lookup needed for RRIRHRPPRLPRPRPRPGIRPRP , thanks.
-0.00441

shrunken log2 fold change lookup needed for RRIRCRPPRLPRPRPRPIYKPRP , thanks.
-0.559

Recorded shrunken log2 fold change of RRIRARPPRLPRPRPRPEQFPRP , please.
0.218

Field request: shrunken log2 fold change | item: RRIRFRPPRLPRPRPRPPWGPRP
0.399

Fill in the blank: the reported shrunken log2 fold change of RRIRHRPPRLPRPRPRPYTGPRP is ____.
-0.304

Any idea what shrunken log2 fold change was measured for RRIRLRPPRLPRPRPRPMMHPRP ?
0.0259

Need shrunken log2 fold change, item RRIRCRPPRLPRPRPRPPDRPRP
0.394

Given the entry RRIRCRPPRLPRPRPRPFFAPRP , report its measured shrunken log2 fold change.
0.216

---

# System: Escherichia coli TOP10;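 further: peptides expressed intracellularly from a pBAD plasmid library in pooled LB shake-flask culture, induced with 0.3% L-arabinose, DNA abundance read by NGS, three biological replicates, DESeq2 with apeglm shrinkage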
# assayMethodText: shrunken log2 fold change of peptide-encoding DNA abundance (4.5 h post-induction vs induction); higher = less antimicrobial activity (less host growth inhibition)
# setupConditions: time post-induction: 4.5 h; library: site-saturation at positions 5, 18, 19, 20
quantityMeasured: shrunken log2 fold change
Could you keep your reply to the number by itself?

# example entries with known answers
[[record]]
sequencechain = "RRIRKRPPRLPRPRPRPPGEPRP"
testsystem = "Escherichia coli TOP10"
quantitymeasured = "shrunken log2 fold change"
reported = 0.617

[[record]]
sequencechain = "RRIRRRPPRLPRPRPRPQWGPRP"
testsystem = "Escherichia coli TOP10"
quantitymeasured = "shrunken log2 fold change"
reported = 0.323

[[record]]
sequencechain = "RRIRDRPPRLPRPRPRPEQGPRP"
testsystem = "Escherichia coli TOP10"
quantitymeasured = "shrunken log2 fold change"
reported = 0.0995

[[record]]
sequencechain = "RRIRLRPPRLPRPRPRPDHPPRP"
testsystem = "Escherichia coli TOP10"
quantitymeasured = "shrunken log2 fold change"
reported = -0.123

[[record]]
sequencechain = "RRIRGRPPRLPRPRPRPGAHPRP"
testsystem = "Escherichia coli TOP10"
quantitymeasured = "shrunken log2 fold change"
reported = 0.755

[[record]]
sequencechain = "RRIRHRPPRLPRPRPRPWNAPRP"
testsystem = "Escherichia coli TOP10"
quantitymeasured = "shrunken log2 fold change"
reported = -0.0678

[[record]]
sequencechain = "RRIRGRPPRLPRPRPRPACMPRP"
testsystem = "Escherichia coli TOP10"
quantitymeasured = "shrunken log2 fold change"
reported = 0.671

[[record]]
sequencechain = "RRIRARPPRLPRPRPRPTILPRP"
testsystem = "Escherichia coli TOP10"
quantitymeasured = "shrunken log2 fold change"
reported = 0.344

[[record]]
sequencechain = "RRIRWRPPRLPRPRPRPNRDPRP"
testsystem = "Escherichia coli TOP10"
quantitymeasured = "shrunken log2 fold change"
reported = -0.00925

[[record]]
sequencechain = "RRIRKRPPRLPRPRPRPEIGPRP"
testsystem = "Escherichia coli TOP10"
quantitymeasured = "shrunken log2 fold change"
reported = 0.191


Lab note: next sequence to report on.
// returns reported shrunken log2 fold change for input RRIRDRPPRLPRPRPRPGKIPRP
-0.176
